Biological target: Follistatin-related protein 3 (Homo sapiens) (UniProt O95633)
Sequence (O95633 whole entry, looked up): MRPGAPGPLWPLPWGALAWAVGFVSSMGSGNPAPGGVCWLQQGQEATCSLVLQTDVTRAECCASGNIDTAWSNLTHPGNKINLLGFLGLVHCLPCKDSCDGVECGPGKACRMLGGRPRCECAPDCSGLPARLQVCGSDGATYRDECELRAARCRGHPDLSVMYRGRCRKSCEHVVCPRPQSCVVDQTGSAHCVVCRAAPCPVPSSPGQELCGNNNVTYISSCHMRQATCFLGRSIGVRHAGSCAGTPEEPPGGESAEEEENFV
Assay: compounds binding follistatin-related protein 3 – biochemical, small-molecule microarray, 635 nm fluorescence, primary screen (AID 1105);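 also: score merges emission near 667 nm and signal to noise per printed spot across three slides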
Settings: FSTL3 binding, higher = more signal
So I've got a bunch of compounds here, and I need their composite z-score values.
Give bare numbers.

Record excerpt, results attached:
C=CC[C@]1(C(=O)N2CCOCC2)N=C(c2ccc(OCCCO)cc2)O[C@H]1c1ccccc1N=[N+]=[N-] = 0.673
COc1ccc(C(=O)Nc2cccc(CN3C(=O)[C@]4(O[C@H](CCn5cc(CCO)nn5)[C@@H]([Si](C)(C)c5ccc(OC)cc5)[C@@H]4C)c4ccccc43)c2)cc1 = 1.01
COc1cc(CO)cc(I)c1O[C@H]1C=C(C(=O)NCCO)C[C@@H](NC[C@@H]2CCCO2)[C@@H]1O = 0.334
CC(C)=CCCC(C)=CC(O)C1C=CC2C(=O)N(c3ccccc3)C(=O)C2N1Nc1ccc(C(C)C)cc1 (stereo not given) = 0.966
[N-]=[N+]=NCc1ccccc1[C@@H]1OC(c2ccc(OCCCO)cc2)=N[C@]1(CCS(=O)(=O)c1ccccc1)C(=O)N1CCOCC1 = 1.07

Provide reported composite z-score for each item, in the same order as listed.
1. CCCC[C@H]1C[C@@H]1[C@@H]1N(P(=O)(c2ccccc2)c2ccccc2)C[C@@](O)(c2ccccc2)CC12CC2
2. CCOC(=O)C[C@H]1[C@H](OC(=O)c2ccc(C(=O)c3ccccc3)cc2)[C@@H](NC(=O)Cc2ccc(OC)cc2)c2cc(OCCCO)ccc2N1C(=O)c1ccc2ccccc2n1
3. CC[C@@H]1C=C(C(=O)O)[C@H](c2ccc(C)cc2)N1S(=O)(=O)c1ccc(C)cc1
4. CCC(CC)C(O)C1C=CC2C(=O)N(c3ccccc3)C(=O)C2N1Nc1ccccc1 (stereo not given)
5. Cc1ccc(/C=C/C=O)cc1

0.21
0.811
0.534
1.38
-0.955

###

Assay: probe aDKK1 binding to arrayed compounds – biochemical, biotinylated probe, 635/667 nm fluorescence, primary screen (AID 1099);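 also: score merges 667nm spot fluorescence with signal to noise across triplicate slides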
Settings: small-molecule microarray, higher = more signal
Please use YES whenever composite z-score is not below -0.2, and NO whenever it is.

Here are 5 molecules together with their reported answers.
COc1cc(OC)c(C(O)C2C=CC3C(=O)NC(=O)C3N2Nc2ccccn2)cc1Br (stereo unspecified) = YES
COCCOC(=O)N1C(=O)[C@@]2(c3cc(C#CCCO)ccc31)[C@H](c1ccc(O)cc1)N1[C@H](c3ccccc3)[C@H](c3ccccc3)OC(=O)[C@H]1[C@@H]2C(=O)N1CCN(c2ncccn2)CC1 = NO
COC(=O)[C@@]1(Cc2ccccc2)[C@H]2c3cc(C(=O)N(C)C)n(Cc4ccc(OC)c(OC)c4)c3C[C@H]2CN1C(=O)c1ccccc1 = YES
COC(=O)[C@H](Cc1ccccc1)N[C@H](/C=C/C1CC1)[C@@H](O)Cc1ccccc1 = NO
[N-]=[N+]=Nc1ccccc1C[C@@]1(C(=O)N2CCCCC2)N=C(c2ccc(OCCCO)cc2)O[C@@H]1c1ccccc1 = YES

Determine whether measured composite z-score meets or exceeds -0.2 for COCCCNC(=O)[C@@]1(CCS(=O)(=O)c2ccccc2)N=C(c2ccc(OCCCO)cc2)O[C@H]1c1ccccc1N=[N+]=[N-]
YES

Determine whether measured composite z-score meets or exceeds -0.2 for CCCCCN1CC=CC23O[C@@H]4C=CCOC(=O)[C@@H]4[C@H]2C(=O)N(C(C)CO)[C@@H]3C1=O (stereo partly specified)
YES

Determine whether measured composite z-score meets or exceeds -0.2 for NCCCCCCNC(=O)[C@H]1C[C@H]2C(=O)N[C@@H](Cc3ccccc3)C(=O)N2[C@H]1c1cccc(OCCO)c1
YES

Determine whether measured composite z-score meets or exceeds -0.2 for O=C(NC1CC1)[C@@H]1c2ccccc2C(=O)N(Cc2cc(F)cc(C(F)(F)F)c2)[C@H]1c1ccc(CO)cc1
NO

Determine whether measured composite z-score meets or exceeds -0.2 for Cc1ccc(S[C@]2(C(=O)O)CC(=O)N(C(C)C)[C@@H]2c2ccc(CO)cc2)cc1
YES

Determine whether measured composite z-score meets or exceeds -0.2 for COC(=O)[C@@]1(Cc2ccccc2)[C@H]2c3cc(C(=O)N4CCCC4)n(Cc4c(CO)[nH]cc(C)c4=O)c3C[C@H]2CN1C(=O)c1ccccc1
YES

Determine whether measured composite z-score meets or exceeds -0.2 for COCCOC(=O)N1C(=O)[C@@]2(c3ccccc31)[C@H](c1ccc(OCCO)cc1)N1[C@H](c3ccccc3)[C@H](c3ccccc3)OC(=O)[C@H]1[C@@H]2C(=O)N1CCc2cc(OC)c(OC)cc2C1
YES

Determine whether measured composite z-score meets or exceeds -0.2 for C#CCOc1ccc(C[C@@H](C(=O)OC)N(CC#C)[C@@H](/C=C/C2CC2)[C@H](O)Cc2ccccc2)cc1
NO

Determine whether measured composite z-score meets or exceeds -0.2 for Cc1ccc(/C=C/C=O)cc1
YES

Determine whether measured composite z-score meets or exceeds -0.2 for C=CC[C@]1(C(N)=O)COC(c2ccc(OCCCO)cc2)=N1
YES

Determine whether measured composite z-score meets or exceeds -0.2 for COc1ccc([Si](C)(C)[C@H]2[C@H](CCn3cc([C@H](O)c4ccccc4)nn3)O[C@@]3(C(=O)N(C)c4ccccc43)[C@@H]2C)cc1
YES

###

System: wheat germ agglutinin (Triticum aestivum), Alexa647-labelled
Assay: Alexa647-WGA lectin binding to printed small molecules – biochemical, small-molecule microarray, 635/667 nm fluorescence, artefact control for SMM control-protein annotation, profiling panel (AID 1140);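 also: score merges 667 nm feature emission with signal to noise over triplicate slides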
Conditions: WGA-A647 binding, 635 nm fluorescence, higher = more signal
ENDPOINT LABEL: composite z-score
Numbers only.

CN(C)CCCCCCNC(=O)[C@@H]1C[C@@H]2C(=O)N3CCC[C@H]3C(=O)N2[C@@H]1c1ccc(O)cc1 = 0.758
NC(=O)NCC#Cc1ccc2c(c1)[C@]1(C(=O)N2)[C@H](C(=O)O)[C@H]2C(=O)O[C@H](c3ccccc3)[C@H](c3ccccc3)N2[C@@H]1c1ccc(O)cc1 = 0.642
C=C(C)[C@@H]1CC=C(C(O)C2C=CC3C(=O)NC(=O)C3N2Nc2ccc(Cl)cc2Cl)CC1 (some centres undefined) = 1.34

// returns reported composite z-score for input O=C1OCCC=C[C@H]2OC34C=CCN(Cn5nnc6ccccc65)C(=O)[C@H]3N(CCO)C(=O)[C@@H]4C12 (some centres undefined)
0.522

###

So I've got a bunch of compounds here, and I need their composite z-score values.
Biological target: Torsin-1A (Homo sapiens) (UniProt O14656)
Sequence (O14656 whole entry, looked up): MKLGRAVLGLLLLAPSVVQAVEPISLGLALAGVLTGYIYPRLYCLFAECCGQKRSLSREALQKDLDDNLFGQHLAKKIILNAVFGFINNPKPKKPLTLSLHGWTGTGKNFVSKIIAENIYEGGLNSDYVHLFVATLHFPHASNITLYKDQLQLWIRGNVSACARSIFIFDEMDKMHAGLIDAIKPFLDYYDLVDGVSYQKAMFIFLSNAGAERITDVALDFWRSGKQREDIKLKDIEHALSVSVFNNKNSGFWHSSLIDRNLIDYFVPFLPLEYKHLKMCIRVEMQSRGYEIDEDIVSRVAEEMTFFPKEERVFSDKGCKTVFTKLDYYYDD
Experiment: torsin A mutant lysate binding on microarrays – cell lysate, small-molecule microarray, COS7 lysate, 635/667 nm fluorescence, primary screen (AID 1150);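 also: score pools 667 nm emission and signal to noise measuring lysate protein binding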
Settings: COS7 hTOR1A mutant lysate, 635 nm fluorescence, higher = more signal

Record excerpt, results attached:
O=C1OCC=C[C@H]2OC34C=CCN(Cn5nnc6ccccc65)C(=O)[C@H]3N(CCCCCO)C(=O)[C@@H]4[C@@H]12 (stereo partly drawn) = -1.08
O=C(NC1CC1)[C@@H]1c2ccccc2C(=O)N(C2Cc3ccccc3C2)[C@H]1c1ccc(CO)cc1 = 1.28

Provide reported composite z-score for each item, in the same order as listed.
1. Cc1c(NC(=O)/C(C#N)=C/c2cccc([N+](=O)[O-])c2)c(=O)n(-c2ccccc2)n1C
2. COc1ccc(-c2cc3c(c(Cc4ccccc4)n2)[Si](C(C)C)(C(C)C)OC3)cn1
3. CC(C)[Si](C#CCCCC#N)(Oc1ccccc1Br)C(C)C
4. COC(=O)[C@@]1(Cc2ccc(F)cc2)[C@H]2c3cc(C(=O)N(C)C)n(Cc4ccc(C)o4)c3C[C@H]2CN1C(=O)c1ccccc1
5. C=CCN1C(=O)[C@]2(Cc3ccccc3)N=C(c3ccc(OCCCO)cc3)O[C@@H]2c2ccccc21

1. 1.12
2. -0.729
3. 0.222
4. 4.51
5. 0.842

Provide reported composite z-score for each item, in the same order as listed.
1. C=CC[C@]1(C(=O)N2CCOCC2)N=C(c2ccc(OCCCO)cc2)O[C@H]1c1ccccc1N=[N+]=[N-]
2. NC(=O)NCC#Cc1ccc2c(c1)[C@]1(C(=O)N2)[C@H](C(=O)O)[C@H]2C(=O)O[C@H](c3ccccc3)[C@H](c3ccccc3)N2[C@@H]1c1ccc(O)cc1
3. OCCCC1=CC(C2CC2)N(Cc2cccc(OC(F)(F)F)c2)CC1 (stereo not drawn)
4. COC(=O)[C@@]1(Cc2ccccc2)[C@H]2c3cc(C(=O)N4CCCC4)n(Cc4ccc(O)c(OC)c4)c3C[C@H]2CN1C(=O)c1ccccc1
5. O=C1NC(=O)C2C1C=CC(C(O)c1ccc(-c3ccccc3)s1)N2Nc1ccc(Cl)cc1Cl (stereo not drawn)
6. NC(=O)[C@@]1(Cc2ccccc2)N=C(c2ccc(OCCCO)cc2)O[C@H]1c1ccccc1
7. OCC1C=C(/C=C/c2ccccc2)CN1Cc1ccccc1Br (stereo not drawn)
8. C=C[C@H](C)[C@@H](OC(=O)Nc1ccc(SC)cc1)c1ccc(O)c2ccccc12

1. 0.705
2. -0.245
3. -0.773
4. 0.0381
5. 0.14
6. 0.601
7. 0.818
8. 0.165

Provide reported composite z-score for each item, in the same order as listed.
1. Cc1ccc(S(=O)(=O)N2C[C@@H](C(=O)O)[C@H](Sc3ccccc3)C[C@H]2c2ccccc2)cc1
2. O=c1cccc(-c2ccccc2Cl)o1
3. C#CCOc1ccc(C[C@@H](C(=O)OC)N(CC#C)[C@@H](/C=C/C2CC2)[C@H](O)Cc2ccccc2)cc1

1: 0.714; 2: 0.112; 3: -0.489
